assay: Everolimus single-dose pharmacokinetics; assay type: in vivo, patients; details: human, plasma, po, t1/2, subject 1002; after first oral dose of everolimus 30 mg, with sunitinib 50 mg daily; plasma
PROPERTY: half-life (h)
Just the number in h, nothing appended.

Fill in reported half-life for this entry: CO[C@H]1C[C@@H]2CC[C@@H](C)[C@@](O)(O2)C(=O)C(=O)N2CCCC[C@H]2C(=O)O[C@H]([C@H](C)C[C@@H]2CC[C@@H](OCCO)[C@H](OC)C2)CC(=O)[C@H](C)/C=C(\C)[C@@H](O)[C@@H](OC)C(=O)[C@H](C)C[C@H](C)/C=C/C=C/C=C/1C
25.7
